Please provide measured MIC for the entries that follow.
system: Acinetobacter baumannii; test: In vitro antibacterial activity, minimum inhibitory concentration (MIC); assay type: cell-based; details: strain HDBAB_OXA_7
One number for each entry, in µg/mL.

A selection of reference data follows.
{"Compound": "CC1(C)[C@H](NC(=O)/C(=N\\O[C@@H](COc2ccc(-c3cn4[n+](c3)CC(OCCCN)C4)cc2)C(=O)O)c2csc(N)n2)C(=O)N1OS(=O)(=O)[O-] (stereo partly drawn)", "MIC / µg/mL": 8}
{"Compound": "C[n+]1cc(-c2ccc(OC[C@H](O/N=C(\\C(=O)N[C@@H]3C(=O)N(OS(=O)(=O)[O-])C3(C)C)c3csc(N)n3)C(=O)O)cc2)ccc1NC(=O)[C@H](N)CCCCN", "MIC / µg/mL": 8}
{"Compound": "C[n+]1cc(-c2ccc(OC[C@H](O/N=C(\\C(=O)N[C@@H]3C(=O)N(OS(=O)(=O)[O-])C3(C)C)c3csc(N)n3)C(=O)O)cc2)ccc1NC(=O)[C@@H](N)CCN", "MIC / µg/mL": 8}

Hey, quick one: what's MIC for each of these?
1. CC1(C)[C@H](NC(=O)/C(=N\O[C@@H](COc2ccc(NC(=O)c3cn(CCCN)[n+](CC4CNC4)c3)cc2)C(=O)O)c2csc(N)n2)C(=O)N1OS(=O)(=O)[O-]
2. C[n+]1cc(-c2ccc(OC[C@H](O/N=C(\C(=O)N[C@@H]3C(=O)N(OS(=O)(=O)[O-])C3(C)C)c3csc(N)n3)C(=O)O)cc2)ccc1NC(=O)[C@@H](N)CCCCN
3. C[n+]1cc(-c2ccc(OC[C@H](O/N=C(\C(=O)N[C@@H]3C(=O)N(OS(=O)(=O)[O-])C3(C)C)c3csc(N)n3)C(=O)O)cc2)ccc1NC(=O)[C@@H](N)CO

result:
1. 4
2. 16
3. 32

----------
Please provide measured MIC for the entries that follow.
test system: Acinetobacter baumannii; test: In vitro antibacterial activity, minimum inhibitory concentration (MIC); type: cell-based; conditions: strain HDBAB_OXA_7

Hey, quick one: what's MIC for each of these?
1. CC1[C@@H](NC(=O)/C(=N\OC2(C(=O)O)CC2)c2csc(N)n2)[C@@H](CN2CCOC2=O)N1S(=O)(=O)O (stereo partly drawn) [Compound B, reference compound]
2. CC1(C)[C@H](NC(=O)/C(=N\O[C@@H](COc2ccc(-c3ccc(NC(=O)[C@@H](N)CO)nc3)cc2)C(=O)O)c2csc(N)n2)C(=O)N1OS(=O)(=O)O [Example 7]
3. CC1(C)[C@H](NC(=O)/C(=N\O[C@@H](COc2ccc(-c3ccc4[nH]c(CN)nc4c3)cc2)C(=O)O)c2csc(N)n2)C(=O)N1OS(=O)(=O)O [Example 11]

result:
["> 64 µg/mL", "> 64 µg/mL", "> 64 µg/mL"]
